# measurement_target: 5-HT2A receptor (Homo sapiens, UniProt P28223)
# Construct: gene HTR2A; full-length human recombinant receptor in CHO-K1 cells (Ogeda); crude membranes
# Sequence (P28223 whole entry): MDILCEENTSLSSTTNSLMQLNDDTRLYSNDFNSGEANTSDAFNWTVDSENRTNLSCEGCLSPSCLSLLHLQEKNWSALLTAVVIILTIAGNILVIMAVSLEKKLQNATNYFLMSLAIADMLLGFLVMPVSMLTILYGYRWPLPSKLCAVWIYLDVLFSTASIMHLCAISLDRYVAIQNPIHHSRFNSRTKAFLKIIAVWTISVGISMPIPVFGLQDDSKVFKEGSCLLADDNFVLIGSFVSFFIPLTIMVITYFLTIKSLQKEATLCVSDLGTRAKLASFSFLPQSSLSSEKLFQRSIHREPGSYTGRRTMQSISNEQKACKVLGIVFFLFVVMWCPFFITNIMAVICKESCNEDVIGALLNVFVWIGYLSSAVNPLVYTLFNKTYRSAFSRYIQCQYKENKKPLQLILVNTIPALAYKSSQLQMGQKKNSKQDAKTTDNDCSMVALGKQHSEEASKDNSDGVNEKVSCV
# procedure_text: biochemical
# Assay type: CHO-K1 membranes
# Set-up: radioligand competition binding on cell membranes, filtration and TopCount scintillation counting
# Procedure: Competition binding was performed in duplicate in the wells of a 96‐well plate containing binding buffer (optimized for each receptor), cell membrane extracts (approximately 20,000 cells distributed in the 96‐well plate), radiotracer, and test agonist. Non‐specific binding was determined by co‐incubation with 200‐fold excess of competitor. […] The plates were incubated 15 min at room temperature on an orbital shaker and then counted with a TopCount™ (Perkin Elmer) for 1 min per well. […]
experimental_endpoint: Ki

compound="CN(C)CCc1c[nH]c2ccc(Cn3cncn3)cc12 [Rizatriptan benzoate]" experimental_endpoint=Ki result="> 10 µM"

---

# measurement_target: 5-HT2B receptor (Homo sapiens)
# Construct: gene HTR2B; full-length human recombinant receptor in CHO-K1 cells (Ogeda); crude membranes
# Sequence (P41595 whole entry): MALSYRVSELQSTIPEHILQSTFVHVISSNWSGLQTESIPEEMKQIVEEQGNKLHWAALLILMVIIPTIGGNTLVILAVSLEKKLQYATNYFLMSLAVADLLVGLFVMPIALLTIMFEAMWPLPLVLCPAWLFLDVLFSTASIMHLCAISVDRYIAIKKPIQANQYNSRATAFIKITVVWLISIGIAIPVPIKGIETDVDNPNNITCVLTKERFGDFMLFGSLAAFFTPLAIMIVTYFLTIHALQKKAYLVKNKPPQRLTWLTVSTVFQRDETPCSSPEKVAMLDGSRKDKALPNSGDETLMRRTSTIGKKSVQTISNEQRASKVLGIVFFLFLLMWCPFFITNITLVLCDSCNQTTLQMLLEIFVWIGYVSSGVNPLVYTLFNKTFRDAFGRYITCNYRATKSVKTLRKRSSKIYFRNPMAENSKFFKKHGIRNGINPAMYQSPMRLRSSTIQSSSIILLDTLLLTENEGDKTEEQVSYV
# procedure_text: cell-based
# Parameters: species or system CHO-K1; IPOne HTRF agonist assay, IP1 accumulation in adherent transfected cells
pEC50: −log10 of the molar value. Where a name gives a salt, the structure may show the parent alone.
experimental_endpoint: pEC50

compound="N#Cc1ccc(N2CCN(C(=O)COc3ccc4[nH]cc(CCN)c4c3)CC2)cc1 [Donitriptan hydrochloride]" measurement_target="5-HT2B receptor (Homo sapiens)" experimental_endpoint=pEC50 numeric_value=7.61

---

Quick reference for EC50 among some compounds
# measurement_target: 5-HT1F receptor (Homo sapiens, UniProt P30939)
# Construct: gene HTR1F; full-length human recombinant receptor in CHO-K1 cells (Ogeda)
# Sequence (P30939 whole entry): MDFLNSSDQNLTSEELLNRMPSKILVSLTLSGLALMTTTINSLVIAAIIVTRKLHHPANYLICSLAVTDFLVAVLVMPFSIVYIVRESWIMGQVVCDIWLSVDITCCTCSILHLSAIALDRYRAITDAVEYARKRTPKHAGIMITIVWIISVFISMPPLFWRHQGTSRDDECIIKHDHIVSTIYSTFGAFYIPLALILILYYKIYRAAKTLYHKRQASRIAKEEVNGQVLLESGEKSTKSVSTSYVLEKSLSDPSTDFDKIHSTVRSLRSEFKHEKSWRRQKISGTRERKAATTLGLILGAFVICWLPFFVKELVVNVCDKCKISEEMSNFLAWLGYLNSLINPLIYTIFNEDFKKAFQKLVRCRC
# procedure_text: cell-based
# Set-up: species or system CHO-K1; cAMP HTRF agonist assay, Gi coupled receptors, inhibition of stimulated cAMP
# conditions: cAMP
Where a name gives a salt, the structure may show the parent alone.
experimental_endpoint: EC50 (nM)

compound="CNC1CCc2[nH]c3ccc(C(N)=O)cc3c2C1 (racemic) [Frovatriptan racemate]" numeric_value=79.4
compound="CN(C)[C@@H]1CCc2[nH]c3ccc(NC(=O)c4ccc(F)cc4)cc3c2C1 [LY344864 hydrochloride]" numeric_value=1.91

---

# measurement_target: 5-HT2B receptor (Homo sapiens)
# Construct: gene HTR2B; full-length human recombinant receptor in CHO-K1 cells (Ogeda); crude membranes
# procedure_text: biochemical
# Assay type: CHO-K1 membranes
# Design: radioligand competition binding on cell membranes, filtration and TopCount scintillation counting
# conditions: radioligand displacement; read-out: 5‐HT2B / pIC50 (converted)
Counter-ions that a name gives are not always drawn.
Quick reference for IC50 among some compounds
experimental_endpoint: IC50 (µM)

compound="CN(C)[C@@H]1CCc2[nH]c3ccc(NC(=O)c4ccc(F)cc4)cc3c2C1 [LY344864 hydrochloride]" qualifier_operator== numeric_value=4.9
compound="CNS(=O)(=O)Cc1ccc2[nH]cc(CCCN3CCN(c4ncncc4OC)CC3)c2c1 [Avitriptan fumarate]" qualifier_operator== numeric_value=1.86
compound="CN1CCC[C@@H]1Cc1c[nH]c2ccc(CCS(=O)(=O)c3ccccc3)cc12 [Eletriptan hydrobromide]" qualifier_operator== numeric_value=0.724
compound="N#Cc1ccc(N2CCN(C(=O)COc3ccc4[nH]cc(CCN)c4c3)CC2)cc1 [Donitriptan hydrochloride]" qualifier_operator== numeric_value=1.32
compound="CNS(=O)(=O)CCc1ccc2[nH]cc(C3CCN(C)CC3)c2c1 [Naratriptan hydrochloride]" qualifier_operator=> numeric_value=10
